Measured values drawn from patent US20040014634A1 for this set.

# key: entry, value: melting point
Structures can show the parent of a compound that is named as a salt.

Example cases with answers are listed next.
compound: Cc1nc(Sc2c(C(=O)c3ccccc3C(F)(F)F)sc3c2c(=O)n(C)c(=O)n3CC(C)C)n[nH]1 [Example 18]
observable: melting point
endpoint.value: 220 to 222 °C
//
compound: Cc1n[nH]c(Sc2c(Cc3ccccc3C(F)(F)F)sc3c2c(=O)n(C)c(=O)n3CC(C)C)n1 (as salt: hydrochloride) [Example 30, dihydrochloride]
observable: melting point
endpoint.value: 154 °C

Input line: Fill blank: measured melting point of the compound CC(C)Cn1c(=O)n(C)c(=O)c2c(Sc3nc[nH]n3)c(Cc3ccccc3C(F)(F)F)sc21 [Example 13] is ____.
Output line: 186 to 187 °C

Input line: Fill blank: measured melting point of the compound CC(C)Cn1c(=O)n(C)c(=O)c2c(Sc3nccs3)c(Cc3ccccc3C(F)(F)F)sc21 [Example 29] is ____.
Output line: 141 to 144 °C

----------
# key: entry, value: melting point

Example cases with answers are listed next.
cpd.smiles: CC(C)Cn1c(=O)n(C)c(=O)c2c(S(=O)(=O)c3nncs3)c(Cc3ccccc3C(F)(F)F)sc21
melting point: 148 to 149 °C

cpd.smiles: CC(C)Cn1c(=O)n(C)c(=O)c2c(Sc3nnc[nH]3)c(Cc3csc4ccccc34)sc21
melting point: 237 to 238.2 °C

Input line: Fill blank: measured melting point of the compound CC(C)Cn1c(=O)n(C)c(=O)c2c(Sc3nnc(N)s3)c(Cc3ccccc3C(F)(F)F)sc21 is ____.
Output line: 236 to 237 °C

Input line: Fill blank: measured melting point of the compound CC(C)Cn1c(=O)n(C)c(=O)c2c(Sc3n[nH]c(=O)[nH]3)c(Cc3ccccc3C(F)(F)F)sc21 is ____.
Output line: 205 to 211 °C

----------
# key: entry, value: melting point

Input line: Fill blank: measured melting point of the molecule CC(C)Cn1c(=O)n(C)c(=O)c2c(Sc3cccs3)c(Cn3cnc4ccccc43)sc21 is ____.
Output line: 198 °C

Input line: Fill blank: measured melting point of the molecule CC(C)Cn1c(=O)n(C)c(=O)c2c(Sc3ncc[nH]3)c(Cc3ccccc3C(F)(F)F)sc21 is ____.
Output line: 221 to 225 °C

Input line: Fill blank: measured melting point of the molecule CC(C)Cn1c(=O)n(C)c(=O)c2c(Sc3ncc[nH]3)c(C(=O)c3ccccc3C(F)(F)F)sc21 is ____.
Output line: 123 to 127 °C

Input line: Fill blank: measured melting point of the molecule CC(C)Cn1c(=O)n(C)c(=O)c2c(Sc3nccs3)c(C(=O)c3ccnc4ccccc34)sc21 is ____.
Output line: 166.8 to 167.6 °C

Input line: Fill blank: measured melting point of the molecule CC(C)Cn1c(=O)n(C)c(=O)c2c(Sc3nc(Br)n[nH]3)c(Cc3ccccc3C(F)(F)F)sc21 is ____.
Output line: 174 to 175 °C

Input line: Fill blank: measured melting point of the molecule CC(C)Cn1c(=O)n(C)c(=O)c2c(Sc3nncs3)c(Cc3ccccc3C(F)(F)F)sc21 is ____.
Output line: 169 to 170 °C

Input line: Fill blank: measured melting point of the molecule CC(C)Cn1c(=O)n(C)c(=O)c2c(Sc3cccs3)c(CN3C(=O)c4ccccc4C3=O)sc21 is ____.
Output line: 163 °C

Input line: Fill blank: measured melting point of the molecule CC(C)Cn1c(=O)n(C)c(=O)c2c(S(=O)(=O)c3nc[nH]n3)c(C(O)c3ccccc3C(F)(F)F)sc21 (stereo not drawn) is ____.
Output line: 198 to 202 °C

Input line: Fill blank: measured melting point of the molecule CC(C)Cn1c(=O)n(C)c(=O)c2c(Sc3nccs3)c(C(O)c3ccnc4ccccc34)sc21 (stereo not drawn) is ____.
Output line: 182.8 to 184 °C
